IC50 overview
Molecular target: PPARγ-Ligand Binding Domain (human recombinant) (Homo sapiens, UniProt P37231)
Sequence (P37231 238-503 limits assumed): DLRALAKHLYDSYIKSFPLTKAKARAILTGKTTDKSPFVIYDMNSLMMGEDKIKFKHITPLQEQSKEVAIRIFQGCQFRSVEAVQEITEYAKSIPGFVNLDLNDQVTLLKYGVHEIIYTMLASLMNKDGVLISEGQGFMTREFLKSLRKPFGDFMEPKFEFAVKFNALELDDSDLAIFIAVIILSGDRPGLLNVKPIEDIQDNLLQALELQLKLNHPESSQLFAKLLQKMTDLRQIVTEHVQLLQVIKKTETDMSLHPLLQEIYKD
Assay: PPARγ-LBD Ligand Screening Assay Kit (Cayman)
Details: PPARγ-LBD probe displacement, top concentration 30 μM; read-out: EC50 or IC50, peroxisome proliferator-activated receptor gamma
Experimental: The assay was performed in a volume of 50 μL in a 96-well plate. […] The fluorescence signals (excitation/emission, 490 nm/520 nm) were read using a PerkinElmer EnSpire multimode plate reader (PerkinElmer, Waltham, MA, USA). […] The IC50 values were calculated using GraphPad Prism 8.0 software by nonlinear regression of dose–response inhibition.

IC50 for CC(C)C[C@@H](C(=O)OCc1ccccc1)N1Cc2ccccc2NC1=O [Compound 63] is > 30 µM

# input for lookup
IC50 for CC(C)C[C@H]1C(=O)N(Cc2ccc(C(F)(F)F)cc2)c2ccccc2C(=O)N1Cc1ccc(C(F)(F)F)cc1 [Compound 31] is > 30 µM

---

System: A549
Assay: MTT cell viability assay
Assay type: cell-based
Conditions: Homo sapiens, 24 h, compounds 0.01–40 μM, read-out: In Vitro Cytotoxicity, EC50 ± SD, A549
Protocol: Initially, we phenotypically screened the synthesized compounds over a panel of tumor cell lines composed of HEPG2, A375, SHSY5Y, MCF7, and A549 derived from liver tumor, melanoma, neuroblastoma, breast cancer, and lung adenocarcinoma, respectively. […] Cell viability was established by measuring mitochondrial metabolic activity with MTT. […] The EC50 values were calculated using GraphPad Prism 8.0 software by nonlinear regression of dose–response inhibition.
EC50 overview

Examples from the recorded data:
EC50 for CC(C)CN1Cc2ccccc2NC[C@@H]1Cc1ccccc1 is > 40 µM

EC50 for CC(C)C[C@@H]1NC(=O)[C@H](Cc2ccccc2)N(Cc2ccccc2)C1=O is > 40 µM

# input for lookup
EC50 for CC(C)C[C@H]1C(=O)Nc2ccccc2N1Cc1ccccc1 is > 40 µM
